Below, each entry is listed alongside its reported normalised response.
Test system: HCC1599
Procedure Details: normalised response (% of control), CellTox Green; higher = less cell death (100 = DMSO, 0 = benzethonium chloride kill control)
Conditions Used: incubation time: 72 h
Measurement Label: normalised response (%)

                                   compound    measurement_label  value_measured
0  CC[C@@H]1C(=O)N(C)c2cnc(Nc3ccc(C(=O)NC4CCN(C)CC4)cc3OC)nc2N1C1CCCC1 [BI 2536] (1000 nM)  normalised response            92.2
1  CCCS(=O)(=O)Nc1ccc(F)c(C(=O)c2c[nH]c3ncc(-c4ccc(Cl)cc4)cc23)c1F [Vemurafenib] (10000 nM)  normalised response            95.8
2  Nc1ncn([C@H]2C[C@H](O)[C@@H](CO)O2)c(=O)n1 [Decitabine] (100 nM)  normalised response             106
3  CCN(CC)CCCC(C)Nc1c2ccc(Cl)cc2nc2ccc(OC)cc12 (stereo not given) [Mepacrine] (500 nM)  normalised response            93.8
4  Cc1ccc(-c2cc(C(F)(F)F)nn2-c2ccc(S(N)(=O)=O)cc2)cc1 [Celecoxib] (1000 nM)  normalised response            99.1
5  C=CC(=O)N1CCC[C@@H](n2nc(-c3ccc(Oc4ccccc4)cc3)c3c(N)ncnc32)C1 [Ibrutinib] (10 nM)  normalised response             107
6  CNC(=O)c1cc(Oc2ccc(NC(=O)Nc3cc(C(C)(C)C)nn3-c3ccc4ncccc4c3)c(F)c2)ccn1 [Rebastinib] (100 nM)  normalised response            99.2
7  Nc1nc2[nH]cc(CCc3ccc(C(=O)N[C@@H](CCC(=O)O)C(=O)O)cc3)c2c(=O)[nH]1 [Pemetrexed] (100 nM)  normalised response            91.2
8  O=C(Cc1ccc(-c2ccc(OCCN3CCOCC3)cc2)cn1)NCc1ccccc1 [KX2-391] (1000 nM)  normalised response            71.9
9  O=C(/C=C/c1cccnc1)NCCCCC1CCN(C(=O)c2ccccc2)CC1 [Daporinad] (100 nM)  normalised response            78.1

Reference source for all entries: the supplement of paper PMC4862054
